Tested on: U2OS
TEST DETAILS: Multiplex assay against U2OS
Format: toxicity, cell-based
DETAILS: human, 48 h, 10 µM, compound concentration 10 uM, replicate 2
Reported Population Apoptotic (%) values are given for each entry in this list.
MEASURED ENDPOINT: Population Apoptotic (%)

INSERT INTO results (compound, measured_endpoint, value_observed) VALUES
  ('CCCSc1nc(N[C@@H]2C[C@H]2c2ccc(F)c(F)c2)c2nnn([C@@H]3C[C@H](OCCO)[C@@H](O)[C@H]3O)c2n1', 'Population Apoptotic (%)', 71),
  ('COc1ccc(-c2ccc3ncc4c(c3c2)n(-c2ccc(N3CCNCC3)c(C(F)(F)F)c2)c(=O)n4C)cn1.O=C(O)/C=C\C(=O)O', 'Population Apoptotic (%)', 100),
  ('CCOC(=O)Nc1cc(-c2ccc(C)c(NS(C)(=O)=O)c2)nn2c(C)nnc12', 'Population Apoptotic (%)', 17),
  ('CC(C)Oc1ccccc1C(=O)Nc1ccccc1C(=O)Nc1cccc(S(=O)(=O)C(F)(F)F)c1', 'Population Apoptotic (%)', 64),
  ('Cc1c[nH]c2nccc(Oc3c(F)cc(Nc4cc(Cl)nc(N)n4)cc3F)c12', 'Population Apoptotic (%)', 76),
  ('C[C@]12CC[C@@H]3c4ccc(O)cc4CC[C@H]3[C@@H]1CC[C@@H]2O', 'Population Apoptotic (%)', 72),
  ('CC(C)NC(=O)N1CC[C@H](NC2=Nc3cc(F)ccc3N(CC(F)F)c3ccc(Cl)cc32)C1', 'Population Apoptotic (%)', 69),
  ('O=C(c1cc2c(cc1F)OC(c1ccc(F)cc1)(c1ccc(Cl)cc1Cl)O2)N1CCOCC1 (stereo not given)', 'Population Apoptotic (%)', 71),
  ('Cl.O=C(O)c1cc(-c2ccc(C3CCNCC3)cc2)c2ccc(-c3ccc(C(F)(F)F)cc3)cc2c1', 'Population Apoptotic (%)', 75),
  ('CC(C)OC(=O)N1CCC(Oc2ncnc3c2cnn3-c2ccc(S(C)(=O)=O)cc2F)CC1', 'Population Apoptotic (%)', 40),
  ('CNC(=O)Nc1ccc(-c2nc(N3CC4CCC(C3)O4)c3cnn(C4CCC5(CC4)OCCO5)c3n2)cc1', 'Population Apoptotic (%)', 43),
  ('CC(C)(C)NC[C@H](O)COc1nsnc1N1CCOCC1', 'Population Apoptotic (%)', 27),
  ('CN1CCN(Cc2ccc(Nc3ncc(Cl)c(Nc4ccccc4S(=O)(=O)N(C)C)n3)cc2)CC1', 'Population Apoptotic (%)', 85),
  ('Cc1ccc(C)c(Oc2ccncc2C(=O)N2CCN(C3CC3)c3ccccc32)c1', 'Population Apoptotic (%)', 33),
  ('Cc1ccc2c(c1)c1c(n2CCc2ccc(C)nc2)CCN(C)C1 [LATREPIRDINE]', 'Population Apoptotic (%)', 62),
  ('CCc1nn(CCCN2CCN(c3cccc(Cl)c3)CC2)c(=O)n1CCOc1ccccc1.Cl [NEFAZODONE HYDROCHLORIDE]', 'Population Apoptotic (%)', 66),
  ('CC1=C(C(=O)Nc2cc3cn[nH]c3cc2F)C(c2ccc(C(F)(F)F)cc2)CC(=O)N1 (stereo not given)', 'Population Apoptotic (%)', 50),
  ('O=c1cc(N2CCOCC2)oc2c(-c3cccc4c3sc3ccccc34)cccc12', 'Population Apoptotic (%)', 80),
  ('Cc1cccc(CN2CCN(C(c3ccccc3)c3ccc(Cl)cc3)CC2)c1.Cl.Cl (stereo not given)', 'Population Apoptotic (%)', 25),
  ('CCc1ccc(OCc2ccccc2C(=O)Nc2ccc3nc(C)cc(N)c3c2)cc1.Cl', 'Population Apoptotic (%)', 100),
  ('COc1ccccc1CN[C@H]1C2CCN(CC2)[C@H]1C(c1ccccc1)c1ccccc1', 'Population Apoptotic (%)', 33),
  ('CC(C)c1noc(N2CCC(COc3ccc(-c4ccc(S(C)(=O)=O)cc4)nc3)CC2)n1', 'Population Apoptotic (%)', 23),
  ('COC(=O)C1=C(C)NC(C)=C(C(=O)OCCCN2CCC(c3ccccc3)(c3ccccc3)CC2)[C@H]1c1cccc([N+](=O)[O-])c1', 'Population Apoptotic (%)', 100),
  ('COc1cc2ncn(-c3cc(OCc4ccccc4C(F)(F)F)c(C(N)=O)s3)c2cc1OC [GW843682X]', 'Population Apoptotic (%)', 71),
  ('COc1cc(Nc2nccc(-c3cnn4nc(OC)ccc34)n2)cc(C(F)(F)F)c1', 'Population Apoptotic (%)', 69);
